# Test Description: In vivo intranasal administration test of milnacipran hydrochloride (Test Example 3)
# Parameters: species or system Wistar male rats
# Experimental Parameters: male, Wistar, in vivo, inhaled or intranasal; rat plasma; i.n. 20 mg/kg
Structures can show the parent of a compound that is named as a salt.
Value Kind: Cmax (ng/mL)
Give bare numbers, in ng/mL.

Answer with reported Cmax of CCN(CC)C(=O)C1(c2ccccc2)CC1CN (racemic) [milnacipran hydrochloride]
5120

----------
# Test Description: In vivo intravenous administration test of milnacipran hydrochloride (Test Example 2)
# Parameters: species or system Wistar male rats
# Experimental Parameters: male, Wistar, rat, in vivo, iv, 20 mg/kg
Structures can show the parent of a compound that is named as a salt.
Value Kind: AUC(0-t) (ng·h/mL)
Give bare numbers, in ng·h/mL.

Answer with reported AUC(0-t) of CCN(CC)C(=O)C1(c2ccccc2)CC1CN (racemic) [milnacipran hydrochloride]
9430

These measurements were taken from patent US20080319083A1.
